Test system: human osteosarcoma cell line SJSA-1
assayProcedure: Inhibition of proliferation of human osteosarcoma cell line SJSA-1 (DAPI staining, In Cell Analyzer)
conditionSummary: Homo sapiens, SJSA-1, 72 h, read-out: IC50 (nM), inhibitory activity on proliferation of human osteosarcoma cell line SJSA-1, SJSA-1, incubated 72 h
parameterMeasured: log10 of IC50 (log10 of the value in nM)
Values reflect log10 of reported IC50 (nM).

Recorded log10 of IC50, per entry:
INSERT INTO measurements (compound, experimentalresult) VALUES
  ('COc1cc(N)c(F)cc1-c1nc2c(n1C(C)C)[C@@]1(C(=O)Nc3cc(Cl)ccc31)N(c1cc(Cl)ccc1C)C2=O [Example S-75]', 0.99),
  ('CCN(C)c1ccc(-c2nc3c(n2C(C)C)[C@]2(C(=O)Nc4cc(Cl)ccc42)N(c2cc(Cl)ccc2C)C3=O)c(OC)c1 [Example R-99]', 3.17),
  ('COc1ncc(-c2nc3c(n2C(C)C)[C@@]2(C(=O)Nc4cc(Cl)ccc42)N(c2cc(F)cc(Cl)c2)C3=O)c(OC)n1 [Example S-45]', 0.79),
  ('CCOc1ccc(-c2nc3c(n2C(C)C)[C@@]2(C(=O)Nc4cc(Cl)ccc42)N(c2cc(Cl)ccc2C)C3=O)c(OC)n1 [Example S-146]', 1.83),
  ('COc1cc(N)ccc1-c1nc2c(n1C(C)C)[C@]1(C(=O)Nc3cc(Cl)ccc31)N(c1cc(F)cc(Cl)c1)C2=O [Example R-67]', 3.93);

QUERY: Would you kindly share the measured log10 of IC50 for COc1nc(OCC(F)(F)F)ncc1-c1nc2c(n1C(C)C)[C@@]1(C(=O)Nc3cc(Cl)ccc31)N(c1cc(Cl)ccc1C)C2=O [Example S-141] ?
RESULT: 1.87

QUERY: Would you kindly share the measured log10 of IC50 for COc1cc(OCC(F)F)ncc1-c1nc2c(n1C(C)C)[C@@]1(C(=O)Nc3cc(Cl)ccc31)N(c1cc(Cl)ccc1C)C2=O [Example S-153] ?
RESULT: 1.34

---

Reported Cmax values for a set of molecules
assayProcedure: Pharmacokinetics in ICR mice after intravenous and intragastric administration
Format: in vivo
conditionSummary: male, ICR, mouse, plasma, iv, 2 mg/kg, IV 2 mg/kg, ICR mice, Mean; read-out: Cmax

INSERT INTO measurements (molecule, parametermeasured, experimentalresult) VALUES
  ('COc1cc(N(C)C)ccc1-c1nc2c(n1C(C)C)[C@@]1(C(=O)Nc3cc(Cl)ccc31)N(c1cc(Cl)ccc1C)C2=O [Example S-23]', 'Cmax', '3490 ng/mL'),
  ('COc1ccc(-c2nc3c(n2C(C)C)[C@@]2(C(=O)Nc4cc(Cl)ccc42)N(c2cc(Cl)ccc2C)C3=O)c(OC)c1 [Example S-9]', 'Cmax', '1440 ng/mL');

Let us move to another entry and its Cmax.
QUERY: Would you kindly share the measured Cmax for COc1cc(OC)c(-c2nc3c(n2C(C)C)[C@@]2(C(=O)Nc4cc(Cl)ccc42)N(c2cc(Cl)ccc2C)C3=O)cn1 [Example S-11] ?
RESULT: 1400 ng/mL

---

Test system: human osteosarcoma cell line SJSA-1
assayProcedure: Inhibition of proliferation of human osteosarcoma cell line SJSA-1 (DAPI staining, In Cell Analyzer)
conditionSummary: Homo sapiens, SJSA-1, 72 h, read-out: IC50 (nM), inhibitory activity on proliferation of human osteosarcoma cell line SJSA-1, SJSA-1, incubated 72 h
parameterMeasured: IC50 (nM)
# output: bare number, implied unit nM

Recorded IC50, per entry:
INSERT INTO results (compound, parametermeasured, unitdescriptor, experimentalresult) VALUES
  ('COc1ccc(C(N)=O)cc1-c1nc2c(n1C(C)C)[C@@]1(C(=O)Nc3cc(Cl)ccc31)N(c1cc(Cl)ccc1C)C2=O [Example S-29]', 'IC50', 'nM', 196),
  ('COc1cccc(OC)c1-c1nc2c(n1C(C)C)[C@@]1(C(=O)Nc3cc(Cl)ccc31)N(c1cc(Cl)ccc1C)C2=O [Example S-79]', 'IC50', 'nM', 72.4),
  ('COc1cc(C(N)=O)ccc1-c1nc2c(n1C(C)C)[C@@]1(C(=O)Nc3cc(Cl)ccc31)N(c1cc(Cl)ccc1C)C2=O [Example S-77]', 'IC50', 'nM', 535),
  ('COc1nc(N)ncc1-c1nc2c(n1C(C)C)[C@@]1(C(=O)Nc3cc(Cl)ccc31)N(c1cc(Cl)ccc1C)C2=O [Example S-90]', 'IC50', 'nM', 255),
  ('COc1nc(N(C)C)ccc1-c1nc2c(n1C(C)C)[C@@]1(C(=O)Nc3cc(Cl)ccc31)N(c1cc(Cl)ccc1C)C2=O [Example S-157]', 'IC50', 'nM', 16.7);

QUERY: Hi! What's the reported IC50 for COc1cc(OCCO)ccc1-c1nc2c(n1C(C)C)[C@@]1(C(=O)Nc3cc(Cl)ccc31)N(c1cc(Cl)ccc1C)C2=O [Example S-148] on human osteosarcoma cell line SJSA-1?
RESULT: 71.8

---

assayProcedure: Pharmacokinetics in ICR mice after intravenous and intragastric administration
Assay type: in vivo
conditionSummary: male, ICR, mouse, plasma, iv, 2 mg/kg, IV 2 mg/kg, ICR mice, Mean; read-out: t1/2 (converted)
Classification field: Criterion met = half-life at or over 1 h; Criterion not met = half-life under 1 h.

Here's what some known entries look like.
INSERT INTO results (molecule, grouplabel) VALUES
  ('COc1ncc(-c2nc3c(n2C(C)C)[C@@]2(C(=O)Nc4cc(Cl)ccc42)N(c2cc(Cl)ccc2C)C3=O)c(OC)n1', 'Criterion not met'),
  ('COc1cc(OC)c(-c2nc3c(n2C(C)C)[C@@]2(C(=O)Nc4cc(Cl)ccc42)N(c2cc(Cl)ccc2C)C3=O)cn1', 'Criterion met'),
  ('COc1ncc(-c2nc3c(n2C(C)C)[C@@]2(C(=O)Nc4cc(Cl)ccc42)N(c2cccc(Cl)c2)C3=O)c(OC)n1', 'Criterion met'),
  ('COc1ccc(-c2nc3c(n2C(C)C)[C@@]2(C(=O)Nc4cc(Cl)ccc42)N(c2cc(Cl)ccc2C)C3=O)c(OC)c1', 'Criterion met'),
  ('COc1cc(N(C)C)ccc1-c1nc2c(n1C(C)C)[C@@]1(C(=O)Nc3cc(Cl)ccc31)N(c1cc(Cl)ccc1C)C2=O', 'Criterion met');

QUERY: Check this molecule for half-life at or above 1 h: COc1ncc(-c2nc3c(n2C(C)C)[C@H](c2ccc(Cl)cc2)N(c2cc(Cl)cn(C)c2=O)C3=O)c(OC)n1 [HDM201, reference compound]
RESULT: Criterion not met

---

Hi! I'm sharing some pIC50 results obtained with MDM2 (Homo sapiens, UniProt Q00987).
Sequence (Q00987 whole entry): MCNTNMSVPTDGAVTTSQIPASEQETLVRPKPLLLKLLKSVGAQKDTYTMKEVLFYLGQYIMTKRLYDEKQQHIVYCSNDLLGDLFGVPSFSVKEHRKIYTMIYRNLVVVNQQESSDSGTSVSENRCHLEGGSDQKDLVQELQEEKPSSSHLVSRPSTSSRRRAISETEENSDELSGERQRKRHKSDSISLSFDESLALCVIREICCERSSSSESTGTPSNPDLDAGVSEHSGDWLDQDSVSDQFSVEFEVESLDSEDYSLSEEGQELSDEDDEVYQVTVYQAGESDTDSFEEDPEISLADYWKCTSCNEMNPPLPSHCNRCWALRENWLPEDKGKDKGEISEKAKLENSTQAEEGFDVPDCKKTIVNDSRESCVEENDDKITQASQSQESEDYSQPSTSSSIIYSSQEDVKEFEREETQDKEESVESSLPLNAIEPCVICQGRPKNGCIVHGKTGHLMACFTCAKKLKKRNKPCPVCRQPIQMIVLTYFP
// pIC50 is dimensionless: -log10 of concentration (M)

QUERY: Hi! What's the reported pIC50 for CCc1ccc(OC)c(-c2nc3c(n2C(C)C)[C@@]2(C(=O)Nc4cc(Cl)ccc42)N(c2cc(Cl)ccc2C)C3=O)c1 [Example S-37] on MDM2 (Homo sapiens, UniProt Q00987)?
RESULT: 7.66

QUERY: Hi! What's the reported pIC50 for COc1ccc(C)cc1-c1nc2c(n1C(C)C)[C@@]1(C(=O)Nc3cc(Cl)ccc31)N(c1cc(Cl)ccc1C)C2=O [Example S-62] on MDM2 (Homo sapiens, UniProt Q00987)?
RESULT: 8.79

QUERY: Hi! What's the reported pIC50 for COc1cc(OC)c(-c2nc3c(n2C(C)C)[C@]2(C(=O)Nc4cc(Cl)ccc42)N(c2cc(Cl)ccc2C)C3=O)cc1C [Example R-83] on MDM2 (Homo sapiens, UniProt Q00987)?
RESULT: 7.06

---

Hi! I'm sharing some IC50 results obtained with MDM2 (Homo sapiens, UniProt Q00987).
# output: bare number, implied unit nM

Recorded IC50, per entry:
INSERT INTO measurements (smilescode, unitdescriptor, experimentalresult) VALUES
  ('COc1ncc(-c2nc3c(n2C(C)C)[C@@]2(C(=O)Nc4cc(Cl)ccc42)N(c2cc(C)cc(Cl)c2)C3=O)c(OC)n1', 'nM', 4.36),
  ('CCOc1ncc(-c2nc3c(n2C(C)C)[C@]2(C(=O)Nc4cc(Cl)ccc42)N(c2cc(Cl)ccc2F)C3=O)c(OC)n1', 'nM', 5.73),
  ('COc1cc(C(C)C)ncc1-c1nc2c(n1C(C)C)[C@]1(C(=O)Nc3cc(Cl)ccc31)N(c1cc(Cl)cnc1C)C2=O', 'nM', 957),
  ('COc1nc(N)ncc1-c1nc2c(n1C(C)C)[C@@]1(C(=O)Nc3cc(Cl)ccc31)N(c1cc(Cl)ccc1C)C2=O', 'nM', 1.38),
  ('COc1cc(N(C)CCO)ccc1-c1nc2c(n1C(C)C)[C@@]1(C(=O)Nc3cc(Cl)ccc31)N(c1cc(Cl)ccc1C)C2=O', 'nM', 2.07);

QUERY: Hi! What's the reported IC50 for `COc1ccc(-c2nc3c(n2C(C)C)[C@]2(C(=O)Nc4cc(Cl)ccc42)N(c2cc(Cl)c(=O)n(C)c2)C3=O)c(OC)c1` on MDM2 (Homo sapiens, UniProt Q00987)?
RESULT: 540

QUERY: Hi! What's the reported IC50 for `COc1cc(N)ccc1-c1nc2c(n1C(C)C)[C@]1(C(=O)Nc3cc(Cl)ccc31)N(c1ccc(F)c(Cl)c1)C2=O` on MDM2 (Homo sapiens, UniProt Q00987)?
RESULT: 142

QUERY: Hi! What's the reported IC50 for `COc1ccc(C#N)cc1-c1nc2c(n1C(C)C)[C@@]1(C(=O)Nc3cc(Cl)ccc31)N(c1cc(Cl)ccc1C)C2=O` on MDM2 (Homo sapiens, UniProt Q00987)?
RESULT: 2.55
